# Test system: LNCaP tumor-bearing male CB-17 SCID mice
# Assay details: Biodistribution studies 24 h p.i.
# Experimental parameters: Table 6
Value type: In vivo biodistribution (24 h p.i.) kidney (% iA/g)
Express your answer in % iA/g, writing the number without its unit.

Consider the worked cases shown below.
CC(C)(C)[Si](F)(c1ccc(C(=O)NC[C@@H](NC(=O)[C@@H](CCCNC(N)=O)NC(=O)CC[C@@H](C(=O)O)N2CCN(CC(=O)O)CCN(CC(=O)O)CCN(CC(=O)O)CC2)C(=O)NCCCCCC(=O)NCCC[C@@H](NC(=O)CC[C@H](NC(=O)N[C@@H](CCC(=O)O)C(=O)O)C(=O)O)C(=O)O)cc1)C(C)(C)C [Compound 2C014] = 2.77
CC(C)(C)[Si](F)(c1ccc(C(=O)NC[C@@H](NC(=O)CN2CCN(CC(=O)O)CCN(CC(=O)O)CCN(CC(=O)O)CC2)C(=O)N[C@H](CO)C(=O)NCCC(=O)NCCC(=O)NCCC[C@@H](NC(=O)CC[C@H](NC(=O)N[C@@H](CCC(=O)O)C(=O)O)C(=O)O)C(=O)O)cc1)C(C)(C)C [Compound 2C013] = 0.95
CC(C)(C)[Si](F)(c1ccc(C(=O)NCC(NC(=O)CCC(C(=O)O)N2CCN(CC(=O)O)CCN(CC(=O)O)CCN(CC(=O)O)CC2)C(=O)NC(CN)C(=O)NCCC(=O)NCCC(=O)NCCCC(NC(=O)CCC(NC(=O)NC(CCC(=O)O)C(=O)O)C(=O)O)C(=O)O)cc1)C(C)(C)C (stereo not shown) [Compound 2C011] = 2.1

Return the recorded In vivo biodistribution (24 h p.i.) kidney value; entry: CC(C)(C)[Si](F)(c1ccc(C(=O)NC[C@@H](NC(=O)[C@@H](CCCNC(N)=O)NC(=O)CC[C@H](C(=O)O)N2CCN(CC(=O)O)CCN(CC(=O)O)CCN(CC(=O)O)CC2)C(=O)NCCCCCC(=O)NCCC[C@@H](NC(=O)CC[C@H](NC(=O)N[C@@H](CCC(=O)O)C(=O)O)C(=O)O)C(=O)O)cc1)C(C)(C)C [Compound 2C015]
2.23

----------
# Target entity: PSMA (Homo sapiens, UniProt Q04609)
# Construct: PSMA-positive LNCAP cells (300265; Cell Lines Service, Eppelheim, Germany); host or cells: LNCaP cells
# Assay details: PSMA affinity (IC50), competition with [125I]I-BA-KuE on LNCaP cells
# Type: binding
# Experimental parameters: natLu complex, on ice 60 min, read-out: IC50
# pIC50 per entry
Worth noting: pIC50 values are minus log10 of concentrations stated in mol/L.

Guide cases for pIC50, answers given:
CC(C)(C)[Si](F)(c1ccc(C(=O)NC[C@@H](NC(=O)CN2CCN(CC(=O)O)CCN(CC(=O)O)CCN(CC(=O)O)CC2)C(=O)N[C@H](CO)C(=O)NCCC(=O)NCCC(=O)NCCC[C@@H](NC(=O)CC[C@H](NC(=O)N[C@@H](CCC(=O)O)C(=O)O)C(=O)O)C(=O)O)cc1)C(C)(C)C = 8.35
CC(C)(C)[Si](F)(c1ccc(C(=O)NC[C@@H](NC(=O)[C@@H](CCCNC(N)=O)NC(=O)CC[C@@H](C(=O)O)N2CCN(CC(=O)O)CCN(CC(=O)O)CCN(CC(=O)O)CC2)C(=O)NCCCCCC(=O)NCCC[C@@H](NC(=O)CC[C@H](NC(=O)N[C@@H](CCC(=O)O)C(=O)O)C(=O)O)C(=O)O)cc1)C(C)(C)C = 8.40
CC(C)(C)[Si](F)(c1ccc(C(=O)NC[C@@H](NC(=O)[C@@H](CCCNC(N)=O)NC(=O)CC[C@H](C(=O)O)N2CCN(CC(=O)O)CCN(CC(=O)O)CCN(CC(=O)O)CC2)C(=O)NCCCCCC(=O)NCCC[C@@H](NC(=O)CC[C@H](NC(=O)N[C@@H](CCC(=O)O)C(=O)O)C(=O)O)C(=O)O)cc1)C(C)(C)C = 8.40
CC(C)(C)[Si](F)(c1ccc(C(=O)NC[C@@H](NC(=O)CC[C@@H](C(=O)O)N2CCN(CC(=O)O)CCN(CC(=O)O)CCN(CC(=O)O)CC2)C(=O)N[C@H](CCCCNC(=O)CCC(=O)NCCC[C@@H](NC(=O)CC[C@H](NC(=O)N[C@@H](CCC(=O)O)C(=O)O)C(=O)O)C(=O)O)C(=O)O)cc1)C(C)(C)C [rhPSMA-7.3, reference compound] = 8.48

In the following, a different molecule is considered.
Given the molecule O=C(O)CC[C@H](NC(=O)N[C@@H](CCCCNC(=O)[C@H](Cc1ccc2ccccc2c1)NC(=O)[C@H]1CC[C@H](CNC(=O)CN2CCN(CC(=O)O)CCN(CC(=O)O)CCN(CC(=O)O)CC2)CC1)C(=O)O)C(=O)O [PSMA-617, reference compound] , write its reported pIC50.
8.48

----------
# Assay details: Octanol-water partition coefficient (log D7.4)
# Type: physicochemical
# Experimental parameters: PBS pH 7.4 / n-octanol, 177Lu-labelled
Value type: logD7.4
Give your answer as a number; write no unit.

CC(C)(C)[Si](F)(c1ccc(C(=O)NC[C@@H](NC(=O)[C@@H](CCCNC(N)=O)NC(=O)CC[C@H](C(=O)O)N2CCN(CC(=O)O)CCN(CC(=O)O)CCN(CC(=O)O)CC2)C(=O)NCCCCCC(=O)NCCC[C@@H](NC(=O)CC[C@H](NC(=O)N[C@@H](CCC(=O)O)C(=O)O)C(=O)O)C(=O)O)cc1)C(C)(C)C = −3.40

Turning now to a further record.
Give me measured logD7.4, please, for this molecule: CC(C)(C)[Si](F)(c1ccc(C(=O)NC[C@@H](NC(=O)CN2CCN(CC(=O)O)CCN(CC(=O)O)CCN(CC(=O)O)CC2)C(=O)N[C@H](CO)C(=O)NCCC(=O)NCCC(=O)NCCC[C@@H](NC(=O)CC[C@H](NC(=O)N[C@@H](CCC(=O)O)C(=O)O)C(=O)O)C(=O)O)cc1)C(C)(C)C
−3.30

----------
# Target entity: Human Serum Albumin (HSA) (Homo sapiens)
# Construct: purchased Daicel H13H-2433
# Sequence (P02768 25-609): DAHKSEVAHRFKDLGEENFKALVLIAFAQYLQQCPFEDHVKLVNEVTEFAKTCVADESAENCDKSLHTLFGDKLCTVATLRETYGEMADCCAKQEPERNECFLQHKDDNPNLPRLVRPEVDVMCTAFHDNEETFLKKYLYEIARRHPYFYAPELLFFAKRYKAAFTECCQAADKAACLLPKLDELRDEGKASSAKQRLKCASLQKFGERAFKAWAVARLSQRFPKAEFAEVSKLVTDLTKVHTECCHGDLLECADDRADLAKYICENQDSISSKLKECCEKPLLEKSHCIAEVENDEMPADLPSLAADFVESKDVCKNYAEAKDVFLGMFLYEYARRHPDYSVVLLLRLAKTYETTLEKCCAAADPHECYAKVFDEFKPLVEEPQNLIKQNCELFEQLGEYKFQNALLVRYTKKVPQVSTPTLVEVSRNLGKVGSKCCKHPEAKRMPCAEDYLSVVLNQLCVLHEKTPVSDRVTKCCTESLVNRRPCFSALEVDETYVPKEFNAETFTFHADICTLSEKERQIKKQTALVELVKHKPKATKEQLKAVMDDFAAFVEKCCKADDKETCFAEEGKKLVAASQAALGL
# Assay details: Human serum albumin (HSA) binding by high performance affinity chromatography (HPAC)
# Format: in vitro ADME
# Experimental parameters: Chiralpak HSA column
# Procedure: Determination of Human Serum Albumin (HSA) Binding by High Performance Affinity Chromatography (HPAC) HSA binding of the PSMA-addressing ligands was determined according to a previously published procedure via HPLC (Valko, K.; Nunhuck, S.; Bevan, C.; Abraham, M. H.; Reynolds, D. P. Journal of pharmaceutical sciences 2003, 92, 2236-2248). A Chiralpak HSA column (50×3 mm, 5 μm, H13H-2433, Daicel, Tokyo, Japan) was used at a constant flow rate of 0.5 mL/min at rt. […]
Value type: HSA (HPAC)

Answered examples (3):
O=C(O)CC[C@H](NC(=O)N[C@@H](CCCCNC(=O)[C@H](Cc1ccc2ccccc2c1)NC(=O)[C@H]1CC[C@H](CNC(=O)CN2CCN(CC(=O)O)CCN(CC(=O)O)CCN(CC(=O)O)CC2)CC1)C(=O)O)C(=O)O [PSMA-617, reference compound] = 84.9%
CC(C)(C)[Si](F)(c1ccc(C(=O)NC[C@@H](NC(=O)CN2CCN(CC(=O)O)CCN(CC(=O)O)CCN(CC(=O)O)CC2)C(=O)N[C@H](CO)C(=O)NCCC(=O)NCCC(=O)NCCC[C@@H](NC(=O)CC[C@H](NC(=O)N[C@@H](CCC(=O)O)C(=O)O)C(=O)O)C(=O)O)cc1)C(C)(C)C = 88.6%
CC(C)(C)[Si](F)(c1ccc(C(=O)NCC(NC(=O)CCC(C(=O)O)N2CCN(CC(=O)O)CCN(CC(=O)O)CCN(CC(=O)O)CC2)C(=O)NC(CN)C(=O)NCCC(=O)NCCC(=O)NCCCC(NC(=O)CCC(NC(=O)NC(CCC(=O)O)C(=O)O)C(=O)O)C(=O)O)cc1)C(C)(C)C (stereo not drawn) = 89.8%

Identify measured HSA (HPAC) corresponding to CC(C)(C)[Si](F)(c1ccc(C(=O)NC[C@@H](NC(=O)[C@@H](CCCNC(N)=O)NC(=O)CC[C@H](C(=O)O)N2CCN(CC(=O)O)CCN(CC(=O)O)CCN(CC(=O)O)CC2)C(=O)NCCCCCC(=O)NCCC[C@@H](NC(=O)CC[C@H](NC(=O)N[C@@H](CCC(=O)O)C(=O)O)C(=O)O)C(=O)O)cc1)C(C)(C)C
95.0%

Return HSA (HPAC) (reported value) for this molecule: CC(C)(C)[Si](F)(c1ccc(C(=O)NC[C@@H](NC(=O)[C@@H](CCCNC(N)=O)NC(=O)CC[C@@H](C(=O)O)N2CCN(CC(=O)O)CCN(CC(=O)O)CCN(CC(=O)O)CC2)C(=O)NCCCCCC(=O)NCCC[C@@H](NC(=O)CC[C@H](NC(=O)N[C@@H](CCC(=O)O)C(=O)O)C(=O)O)C(=O)O)cc1)C(C)(C)C
94.6%

For the molecule CC(C)(C)[Si](F)(c1ccc(C(=O)NC[C@@H](NC(=O)CC[C@@H](C(=O)O)N2CCN(CC(=O)O)CCN(CC(=O)O)CCN(CC(=O)O)CC2)C(=O)N[C@H](CCCCNC(=O)CCC(=O)NCCC[C@@H](NC(=O)CC[C@H](NC(=O)N[C@@H](CCC(=O)O)C(=O)O)C(=O)O)C(=O)O)C(=O)O)cc1)C(C)(C)C [rhPSMA-7.3, reference compound] , report HSA (HPAC).
98.6%
